Numbers sourced from patent US20200239573A1.

targetDesc: T1, human PD-1 expressed on cells (CHO human PD-1 cells) (human, UniProt Q15116 21-288)
T1 construct: also called CHO TREX human PD-1 cell line; CHO PD-1
T1 sequence (Q15116 21-288): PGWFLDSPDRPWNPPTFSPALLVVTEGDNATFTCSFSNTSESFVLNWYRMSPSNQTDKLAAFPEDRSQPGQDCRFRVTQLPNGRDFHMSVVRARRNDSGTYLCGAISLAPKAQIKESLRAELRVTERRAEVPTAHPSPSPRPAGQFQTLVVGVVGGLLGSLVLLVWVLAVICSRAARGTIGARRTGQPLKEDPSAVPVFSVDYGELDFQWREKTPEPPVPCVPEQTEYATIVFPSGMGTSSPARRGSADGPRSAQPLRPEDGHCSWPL
assayDetails: FMAT epitope competition on CHO human PD-1 cells; competitor 1 nM 1.1-Strep
metricName: IC50 (nM)
The reply should be a number in nM, with the unit left off.

// returns reported IC50 for input Humabody® 1.53 (VHH, human VH single domain antibody) VHH: QVQLVESGGGLVKPGGSLRLSCAASGFTFSDNSMTWMRQAPGKGLEWVSYISSGGSVKFYADSVKGRFTISRDNAKNSLYLQMNSLRADDTAVYYCAREAPLRLGESPHDAFDIWGQGTMVTVSS 5.4

// returns reported IC50 for input Humabody® 1.51 (VHH, human VH single domain antibody) VHH: QVQLVESGGGLVKPGGSLRLSCAASGFTFSDSSMTWMRQAPGKGLEWVSYISSGGAVKFYTDSVKGRFTISRDNAKNSLYLQMNSLRADDTAVYYCAREAPLRLGESPHDAFDIWGQGTMVTVSS 4.7

// returns reported IC50 for input Humabody® 1.93 (VHH, human VH single domain antibody) VHH: EVQLVESGGGLVKPGGSLRLSCAASGFTFSDASMTWMRQAPGKGLEWVSYISSGGGVKFYADSVKGRFTISRDNAKNSLYLQMNSLRAEDTAVYYCAREAPLRLGESPHDAFDISGQGTMVTVSS 1.5

// returns reported IC50 for input Humabody® 1.47 (VHH, human VH single domain antibody) VHH: QVQLVESGGGLVKPGGSLRLSCAASGFTFSDNSMSWMRQAPGKGLEWVSYISSGGGVIFYADSVKGRFTISRDNAKNSLYLQMNSLRADDTAVYYCAREAPLRLGESPHDAFDIWGQGTMVTVSS 4.4
